Biological target: Alpha-2C adrenergic receptor (Homo sapiens) (UniProt P18825)
Sequence (P18825 whole entry, looked up): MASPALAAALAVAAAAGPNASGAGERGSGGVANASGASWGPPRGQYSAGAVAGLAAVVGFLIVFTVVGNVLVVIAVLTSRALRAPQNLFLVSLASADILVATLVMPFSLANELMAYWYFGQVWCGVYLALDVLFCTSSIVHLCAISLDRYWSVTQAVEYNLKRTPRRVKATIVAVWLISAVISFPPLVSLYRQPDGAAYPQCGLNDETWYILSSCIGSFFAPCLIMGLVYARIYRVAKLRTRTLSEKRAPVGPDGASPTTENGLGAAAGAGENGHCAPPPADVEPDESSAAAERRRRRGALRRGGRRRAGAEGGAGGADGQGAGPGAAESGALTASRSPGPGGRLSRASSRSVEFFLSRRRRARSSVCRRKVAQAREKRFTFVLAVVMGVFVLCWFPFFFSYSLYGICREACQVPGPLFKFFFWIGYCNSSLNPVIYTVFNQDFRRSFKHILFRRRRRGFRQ
Assay: modulators of alpha2C/GIRK thallium flux, primary screen, cell-based, HEK293 alpha2C/GIRK1/2 (AID 624);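 also: slope of fluorescence ratio to pre-addition baseline per second over 15 to 24 s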
Conditions: thallium flux BTC fluorescence, at 10 µM, actives lie on both sides
reported.property: slope

> print(dat)
                                    compound                            assayed.system  numeric.result
 1         CC(=O)c1cccc(NC(=O)CCOc2ccccc2)c1  Alpha-2C adrenergic receptor (Homo sapiens) (UniProt P18825)         0.00322
 2     Brc1ccc2[nH]c3nc(SCCN4CCOCC4)nnc3c2c1  Alpha-2C adrenergic receptor (Homo sapiens) (UniProt P18825)         0.00594
 3                    O=C(Nc1ccccn1)N1CCOCC1  Alpha-2C adrenergic receptor (Homo sapiens) (UniProt P18825)         0.00596
 4  O=C(NC1CC1)c1cccc(Nc2ccc(-c3ccc4c(c3)OCCO4)nn2)c1  Alpha-2C adrenergic receptor (Homo sapiens) (UniProt P18825)         0.00455
 5  CC(NC(=O)c1cc2c(=O)n(C)c3ccccc3c2n1C)c1ccc2c(c1)OCCO2 (stereo not given)  Alpha-2C adrenergic receptor (Homo sapiens) (UniProt P18825)         0.00677
 6               CN(C)c1oc(-c2ccccc2F)nc1C#N  Alpha-2C adrenergic receptor (Homo sapiens) (UniProt P18825)         0.00727
 7         COc1ccc(S(=O)(=O)Nc2ccccc2OC)cc1C  Alpha-2C adrenergic receptor (Homo sapiens) (UniProt P18825)         0.00608
 8              COC(=O)n1c(=S)oc2cc(Cl)ccc21  Alpha-2C adrenergic receptor (Homo sapiens) (UniProt P18825)          0.0107
 9                Cc1ccc(NC(=O)CCC(=O)O)cc1F  Alpha-2C adrenergic receptor (Homo sapiens) (UniProt P18825)         0.00611
10  CCOc1ccc(NC(=O)c2ccc3c(c2)N(Cc2ccc(F)cc2)C(=O)CS3=O)cc1 (stereo not given)  Alpha-2C adrenergic receptor (Homo sapiens) (UniProt P18825)         0.00664
11                  Nc1nnc(C(=O)c2ccccc2N)s1  Alpha-2C adrenergic receptor (Homo sapiens) (UniProt P18825)         0.00502
12  CCCC(=O)Nc1ccccc1-c1nnn(CC(=O)Nc2ccc(OC)cc2)n1  Alpha-2C adrenergic receptor (Homo sapiens) (UniProt P18825)          0.0062
13        O=C(NC1CCCCC1)N(Cc1ccccc1)Cc1ccco1  Alpha-2C adrenergic receptor (Homo sapiens) (UniProt P18825)         0.00512
14  CC1=C(C(=O)Nc2ccc(F)cc2)C(c2cccc(C)c2)n2nc(CCCO)nc2N1 (stereo not given)  Alpha-2C adrenergic receptor (Homo sapiens) (UniProt P18825)         0.00457
15               CC(C)CSc1nc2ccccc2n1CC(N)=O  Alpha-2C adrenergic receptor (Homo sapiens) (UniProt P18825)         0.00549
16  COCCN(C(=O)c1csnn1)C(C(=O)NC(C)(C)C)c1cccc(OC)c1 (stereo not given)  Alpha-2C adrenergic receptor (Homo sapiens) (UniProt P18825)         0.00595
17              Cc1cc(NS(=O)(=O)c2ccccc2)no1  Alpha-2C adrenergic receptor (Homo sapiens) (UniProt P18825)         0.00728
18  COc1ccccc1CN1CCCC(C(=O)N(C)Cc2ccccc2)C1 (stereo not given)  Alpha-2C adrenergic receptor (Homo sapiens) (UniProt P18825)         0.00506
19                CCCCNc1cc(C)oc(=O)c1C(C)=O  Alpha-2C adrenergic receptor (Homo sapiens) (UniProt P18825)           0.006
20  COc1ccc(C2=NOC(C(=O)Nc3cc(Br)ccc3O)C2)cc1OC (stereo not given)  Alpha-2C adrenergic receptor (Homo sapiens) (UniProt P18825)         0.00665
21       Cc1noc(C)c1COC(=O)c1ccccc1Oc1ccccc1  Alpha-2C adrenergic receptor (Homo sapiens) (UniProt P18825)         0.00533
22    CCn1c(=O)cc(OCC(=O)NC2CCCCC2)c2ccccc21  Alpha-2C adrenergic receptor (Homo sapiens) (UniProt P18825)         0.00609
23  COc1cccc(-c2noc(C3CCCN(C(=O)Cc4ccccc4)C3)n2)c1 (stereo not given)  Alpha-2C adrenergic receptor (Homo sapiens) (UniProt P18825)         0.00584
24  CCCNS(=O)(=O)c1ccc(OCC(=O)NCc2ccc3c(c2)OCO3)cc1  Alpha-2C adrenergic receptor (Homo sapiens) (UniProt P18825)         0.00408
25  COC(=O)c1ccccc1NC(=O)CC(NCc1ccccc1)C(=O)O (stereo not given)  Alpha-2C adrenergic receptor (Homo sapiens) (UniProt P18825)         0.00289
26  O=C(Nc1ccc2c(c1)OCCO2)C1CCCN(S(=O)(=O)c2cnc[nH]2)C1 (stereo not given)  Alpha-2C adrenergic receptor (Homo sapiens) (UniProt P18825)         0.00662
27   Cc1c(C#N)c2ccccc2n1CC(=O)N1CCc2ccccc2C1  Alpha-2C adrenergic receptor (Homo sapiens) (UniProt P18825)         0.00747
28   CCCCc1ccc(NC(=O)N[C@H](C(=O)O)C(C)C)cc1  Alpha-2C adrenergic receptor (Homo sapiens) (UniProt P18825)         0.00552
29  O=C(NCCC1=CCCCC1)C1CCN(C(=O)Nc2ccccc2)CC1  Alpha-2C adrenergic receptor (Homo sapiens) (UniProt P18825)         0.00392
30  CCOc1ccc(Nc2nc(Cc3nnc(SCC(N)=O)o3)cs2)cc1  Alpha-2C adrenergic receptor (Homo sapiens) (UniProt P18825)         0.00638

###

Test: inhibitors of E-selectin induction by TNFa, primary screen, imaging, HUVEC, immunofluorescence, MLSMR starter and 10KST1 sets (AID 487);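 also: 100% = median nuclei count of all wells on the same plate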
Conditions: HUVEC TNFalpha-induced E-selectin immunofluorescence imaging, at 2 µM; measured here: cell number, toxicity
reported.property: nuclei count (%)

> print(dat)
                                    molecule  unit.of.measurement  numeric.result
 1    COC(=O)c1cc(S(=O)(=O)N2CCC(C)CC2)ccc1F                    %             104
 2  CCOc1ccccc1NC(=O)NC1CCN(CC(=O)Nc2ccc3c(c2)OCCO3)CC1                    %            87.4
 3   CCOc1ccc(C(=O)N2CCN(c3ccccc3)CC2)cc1OCC                    %             100
 4          CC(C)OCCCNc1ncnc2c1cnn2-c1ccccc1                    %             117
 5  COc1ccc(OC)c(C2/C(=C(/O)c3ccccc3)C(=O)C(=O)N2Cc2ccco2)c1 (configuration not stated)                    %             169
 6                COCCSc1ccccc1C(=O)Nc1nncs1                    %             112
 7  CC1CCN(C(=O)CN2C(=O)C(C)(C)Oc3ccc(C(=O)NC4CCCC4)cc32)CC1                    %             117
 8  Cn1c(=O)c2c(nc(Br)n2CCSc2nnnn2-c2ccccc2)n(C)c1=O                    %            74.1
 9  O=C(c1cnccn1)N(c1ccccc1)C1(C(=O)NC2CCCC2)CCCCC1                    %             116
10  COc1cc(C2CC(=O)NC3=C2C(=O)CC(C)(C)C3)ccc1O (configuration not stated)                    %             105
11    Cc1ccc(CCC(=O)Nc2ccc(S(N)(=O)=O)cc2)o1                    %            99.7
12  O=C1CN(C(=O)COC(=O)c2ccccc2NC(=O)c2ccco2)c2ccccc2N1                    %             123
13  O=C(c1ccc(CSCc2ccccc2F)o1)N1CCN(c2ccc(N3CCOCC3)nn2)CC1                    %             101
14        CC(C)OC(=O)CCNc1n[nH]c(=O)[nH]c1=O                    %             119
15  CCc1nnc(NC(=O)NCN2C(=O)C3C4C=CC(C4)C3C2=O)s1 (configuration not stated)                    %            96.4
16   COc1ccc(N2C(=O)C(Cl)=C(N3CCCC3)C2=O)cc1                    %             100
17  CS(=O)(=O)C1=C(O)C(=O)N(c2ccccc2)C1c1ccccc1 (configuration not stated)                    %             132
18          NC(=O)NC(=O)CSc1cccc(C(F)(F)F)c1                    %             123
19        Cc1cc(C)c2c(CC(=O)NCc3ccco3)coc2c1                    %            60.6
20  Cc1cc(NC(=O)CCC(=O)N(c2cccnc2)C(C(=O)NC2CCCC2)c2ccccc2F)no1 (configuration not stated)                    %             116
21  Cc1cc(Cl)c(S(=O)(=O)Nc2ccc3c(c2)OCCO3)cc1OCC(N)=O                    %             113
22  Cc1ccccc1NC(=O)Cc1nnc(SCC(=O)N2CCN(c3ccccc3)CC2)n1C                    %             131
23     Cc1noc(C)c1C(=O)Nc1ccc(Cl)cc1C(F)(F)F                    %             102
24  COc1cccc(-c2cc(C(=O)N3CCc4ccccc4C3)no2)c1                    %            99.8
25          Nc1nnnn1/N=C/c1cccc(Oc2ccccc2)c1                    %            88.7
26  O=C(CSc1nnc(COc2ccc(Cl)cc2)o1)N1CCN(c2ccccc2)CC1                    %             110
27         CCC(CC)c1nc2cc(OC)c(OC)cc2c(=O)o1                    %             126
28   CCc1c(C)c2cc(Cl)c(O)c(CN3CCCCC3)c2oc1=O                    %             174
29      CCCCc1[nH]c(=O)c(C#N)c2c1CSC(C)(C)C2                    %             132
30                       OC1C[N+]2(CCCCC2)C1                    %             111
31     CCc1cc(=O)oc2cc(C)c(CN3CCCCC3)c(O)c12                    %             182
32    CCc1cc(=O)oc2cc(OC(C)=O)cc(OC(C)=O)c12                    %            97.5
33  CC(=O)Nc1sc2c(c1CN1CCN(c3ccccn3)CC1)CCCC2                    %            95.3
34  COc1cc(Br)cc(CN2CCN(C/C=C/c3ccccc3)CC2)c1O                    %             108
35  CC1(C)Cc2c(C#N)c(N3CCN(C(=O)c4ccco4)CC3)nc(-c3ccco3)c2CS1                    %             138
36  O=C(CN1C(=O)c2ccccc2S1(=O)=O)NCCSCc1ccco1                    %             142
37  CCOc1cccc(NC(=O)C2CC(=O)NC(=Nc3ccccc3)S2)c1 (configuration not stated)                    %             117
